Here the recorded TLR9 500 nM (averaged NF-κB-Luciferase level relative to ODN2006 condition) is given for each entry.
Target: human TLR9 (Homo sapiens)
Construct: HA; host or cells: 293XL-hTLR9-HA (HEK293)
Sequence (Q9NR96 26-1032): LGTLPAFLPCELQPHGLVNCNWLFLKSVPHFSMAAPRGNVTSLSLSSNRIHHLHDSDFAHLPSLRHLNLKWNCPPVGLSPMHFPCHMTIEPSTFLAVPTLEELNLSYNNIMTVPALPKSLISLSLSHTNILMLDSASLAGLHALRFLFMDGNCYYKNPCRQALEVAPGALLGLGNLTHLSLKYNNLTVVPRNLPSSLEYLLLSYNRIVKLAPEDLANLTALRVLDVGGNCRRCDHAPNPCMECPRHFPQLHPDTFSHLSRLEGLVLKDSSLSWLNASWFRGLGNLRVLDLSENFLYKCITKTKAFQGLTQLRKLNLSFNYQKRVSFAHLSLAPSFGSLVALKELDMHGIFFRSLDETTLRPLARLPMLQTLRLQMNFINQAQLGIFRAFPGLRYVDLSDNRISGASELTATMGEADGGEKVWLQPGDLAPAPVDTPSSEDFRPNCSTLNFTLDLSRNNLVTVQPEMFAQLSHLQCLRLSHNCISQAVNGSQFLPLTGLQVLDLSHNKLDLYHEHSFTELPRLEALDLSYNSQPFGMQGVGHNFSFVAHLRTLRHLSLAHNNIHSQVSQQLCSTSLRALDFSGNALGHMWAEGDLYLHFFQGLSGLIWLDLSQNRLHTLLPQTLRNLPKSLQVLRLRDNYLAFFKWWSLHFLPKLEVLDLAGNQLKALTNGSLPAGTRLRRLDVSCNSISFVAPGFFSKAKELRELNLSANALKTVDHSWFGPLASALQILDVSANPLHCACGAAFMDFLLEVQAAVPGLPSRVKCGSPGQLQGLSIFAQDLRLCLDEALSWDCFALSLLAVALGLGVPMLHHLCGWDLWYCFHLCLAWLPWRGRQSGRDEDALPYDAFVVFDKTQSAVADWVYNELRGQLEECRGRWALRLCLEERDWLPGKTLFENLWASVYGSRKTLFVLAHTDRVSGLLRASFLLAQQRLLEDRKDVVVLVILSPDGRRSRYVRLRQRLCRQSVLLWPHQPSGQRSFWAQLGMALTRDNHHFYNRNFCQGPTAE
Assay: HEK-TLR9 NF-κB-luciferase reporter, ODN2006 stimulation
Type: cell-based
Details: ASO 500 nM; relative to ODN2006 only, given as fraction
Protocol: In such examples, inhibition of TLR9 activity can be identified by observation of an overall decreased TLR9 response of the cell population, or a lower proportion of cells having TLR9-positive activity as compared to positive control condition in which cells are treated with TLR9 agonist in the absence of the oligonucleotide (or in the presence of an appropriate control inhibitory agent). […] TLR9 activity can then be determined by a luciferase assay. […]
Reply: number alone, nothing else.

As a guide, the following entries are already answered.
Residues	Recorded Result
AGATTTCAGAGCAGCT (antisense; LNA-modified, pattern not given here) [EGFR-4885 LNA KL]	0.438
TGCTCCTCGGTCTCCC (antisense; LNA-modified, pattern not given here) [CAMSAP1-1850 LNA V1]	0.535
ATCTGGCAGCCCATCA (antisense; LNA-modified, pattern not given here) [CTNN2B-2516 LNA V1]	0.603

Now take the following sequence into account.
Look up TLR9 500 nM (averaged NF-κB-Luciferase level relative to ODN2006 condition) for this sequence: CACTTCGTGGGGTCCT (antisense; LNA-modified, pattern not given here) [HPRT LNA-664 V1]
0.074
